# Assay notes: Immunosuppressive activity in H-2d alloantigen-sensitized C57B1/6 (H-2b) mouse spleen effector T cells assessed as inhibition of effector T cell-induced DBA/2 (H-2d) mouse [51Cr]-labeled P815 cell lysis by measuring lysed cells at 100 ug/mL after 4 hrs by [51Cr] release assay relative to control
# Assay type: functional
# Specific lysis, % of untreated control per record follows

CC(=O)OC[C@H]1O[C@@H]2[C@@H](Oc3nc(=O)n(C)c(=O)n32)[C@@H]1OC(C)=O = 93%
Cn1c(=O)[nH]c(=O)n([C@@H]2O[C@H](CO)[C@@H](O)[C@@H]2O)c1=O = 93%
CC(=O)OC[C@H]1O[C@@H](n2c(=O)[nH]c(=O)n(C)c2=O)[C@@H](OC(C)=O)[C@@H]1OC(C)=O = 88%
CN1CN([C@H]2C[C@H](O)[C@@H](CO)O2)C(=O)NC1=O = 73%

Shifting focus to the molecule that follows.
Q: Using the record for Cn1c(=O)nc2n(c1=O)[C@@H]1O[C@H](CO)[C@@H](O)[C@@H]1O2 , report its Specific lysis, % of untreated control.
Ans: 92%

----------
# Specific lysis as % of untreated control per record follows
# Assay notes: Immunosuppressive activity in H-2d alloantigen-sensitized C57B1/6 (H-2b) mouse spleen effector T cells assessed as inhibition of effector T cell-induced DBA/2 (H-2d) mouse [51Cr]-labeled P815 cell lysis by measuring lysed cells at 1 ug/mL after 4 hrs by [51Cr] release assay relative to control
# Format: functional
Please respond with the number in % and leave the unit unwritten.

Cn1c(=O)[nH]c(=O)n([C@@H]2O[C@H](CO)[C@@H](O)[C@@H]2O)c1=O = 94
CN1CN([C@H]2C[C@H](O)[C@@H](CO)O2)C(=O)NC1=O = 90
CC(=O)OC[C@H]1O[C@@H](n2c(=O)[nH]c(=O)n(C)c2=O)[C@@H](OC(C)=O)[C@@H]1OC(C)=O = 96

Q: Using the record for CC(=O)OC[C@H]1O[C@@H]2[C@@H](Oc3nc(=O)n(C)c(=O)n32)[C@@H]1OC(C)=O , report its Specific lysis as % of untreated control.
Ans: 95

Q: Using the record for Cn1c(=O)nc2n(c1=O)[C@@H]1O[C@H](CO)[C@@H](O)[C@@H]1O2 , report its Specific lysis as % of untreated control.
Ans: 100

Just for reference, ChEMBL document CHEMBL3244205 is where these values come from.
